All values here come from paper PMC5564600.

Catalogue of remaining activity at 1 µM values
target: panel of 442 kinases (Homo sapiens, UniProt O60331); construct: purchased Ambit Biosciences (scanMAXX KINOMEscan); test: biochemical; format: binding; conditions: kinase PIP5K1C; 1 µM; read-out: % of control at 1 µM
Sequence (O60331 whole entry): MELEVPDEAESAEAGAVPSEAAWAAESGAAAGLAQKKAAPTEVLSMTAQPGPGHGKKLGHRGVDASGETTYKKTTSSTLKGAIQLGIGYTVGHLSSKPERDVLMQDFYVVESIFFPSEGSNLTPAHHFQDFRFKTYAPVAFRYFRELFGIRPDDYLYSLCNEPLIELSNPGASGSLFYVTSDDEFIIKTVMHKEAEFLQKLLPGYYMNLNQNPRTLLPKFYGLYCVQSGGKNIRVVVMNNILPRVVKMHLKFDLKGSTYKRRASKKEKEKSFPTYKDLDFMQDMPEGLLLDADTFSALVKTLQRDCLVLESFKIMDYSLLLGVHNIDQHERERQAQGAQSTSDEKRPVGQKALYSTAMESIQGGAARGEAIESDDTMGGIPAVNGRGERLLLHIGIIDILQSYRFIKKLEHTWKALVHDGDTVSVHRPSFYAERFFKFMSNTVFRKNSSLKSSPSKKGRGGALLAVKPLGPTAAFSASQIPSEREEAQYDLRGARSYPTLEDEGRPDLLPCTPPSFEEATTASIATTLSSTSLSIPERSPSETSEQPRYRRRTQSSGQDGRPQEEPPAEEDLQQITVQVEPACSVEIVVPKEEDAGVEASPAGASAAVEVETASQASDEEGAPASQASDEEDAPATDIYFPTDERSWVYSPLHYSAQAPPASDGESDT
Form entry: enter the amount, then its unit.

Examples with answers:
FC(F)c1nc2ccccc2n1-c1nc(N2CCOCC2)nc(N2CCOCC2)n1; 100%
Cn1c(=O)n(-c2ccc(C(C)(C)C#N)cc2)c2c3cc(-c4cnc5ccccc5c4)ccc3ncc21; 100%
Nc1cc(C(F)(F)F)c(-c2cc(N3CCOCC3)nc(N3CCOCC3)n2)cn1; 55%

--- query ---
Problem: I'd like to know its remaining activity at 1 µM. The compound in question is COc1ncc(-c2ccc3nccc(-c4ccnnc4)c3c2)cc1NS(=O)(=O)c1ccc(F)cc1F
Result: 100%

###

Biological target: panel of 442 kinases (Homo sapiens, UniProt P42679)
Construct: purchased Ambit Biosciences (scanMAXX KINOMEscan)
Sequence (P42679 1-507): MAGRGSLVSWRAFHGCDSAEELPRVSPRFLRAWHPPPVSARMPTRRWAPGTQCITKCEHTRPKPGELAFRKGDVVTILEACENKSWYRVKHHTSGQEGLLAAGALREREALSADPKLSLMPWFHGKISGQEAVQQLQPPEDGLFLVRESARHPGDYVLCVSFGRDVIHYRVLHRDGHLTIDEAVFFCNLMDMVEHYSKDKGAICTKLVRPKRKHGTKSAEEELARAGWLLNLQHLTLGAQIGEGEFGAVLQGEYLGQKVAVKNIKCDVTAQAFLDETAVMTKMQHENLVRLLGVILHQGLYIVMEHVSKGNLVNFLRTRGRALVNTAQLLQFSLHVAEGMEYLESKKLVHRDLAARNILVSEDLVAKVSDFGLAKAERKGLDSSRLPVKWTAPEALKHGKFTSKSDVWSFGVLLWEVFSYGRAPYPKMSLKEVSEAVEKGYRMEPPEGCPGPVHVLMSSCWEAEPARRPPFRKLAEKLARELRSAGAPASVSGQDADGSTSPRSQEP
Assay: biochemical
Type: binding
Conditions: CTK; 1 µM; read-out: % of control at 1 µM
endpoint: remaining activity at 1 µM (%)
Output spec: scalar in %, unitless text.

FC(F)c1nc2ccccc2n1-c1nc(N2CCOCC2)nc(N2CCOCC2)n1; 100
Nc1cc(C(F)(F)F)c(-c2cc(N3CCOCC3)nc(N3CCOCC3)n2)cn1; 100
COc1ncc(-c2ccc3nccc(-c4ccnnc4)c3c2)cc1NS(=O)(=O)c1ccc(F)cc1F; 100

Query molecule follows.
Problem: Form entry - test system: panel of 442 kinases (Homo sapiens, UniProt P42679); read-out: remaining activity at 1 µM; molecule: Cn1c(=O)n(-c2ccc(C(C)(C)C#N)cc2)c2c3cc(-c4cnc5ccccc5c4)ccc3ncc21
Result: 92

###

target: panel of 442 kinases (Homo sapiens, UniProt Q08345); construct: purchased Ambit Biosciences (scanMAXX KINOMEscan); test: biochemical; type: binding; conditions: DDR1; 1 µM; read-out: % of control at 1 µM
Sequence (Q08345 19-913): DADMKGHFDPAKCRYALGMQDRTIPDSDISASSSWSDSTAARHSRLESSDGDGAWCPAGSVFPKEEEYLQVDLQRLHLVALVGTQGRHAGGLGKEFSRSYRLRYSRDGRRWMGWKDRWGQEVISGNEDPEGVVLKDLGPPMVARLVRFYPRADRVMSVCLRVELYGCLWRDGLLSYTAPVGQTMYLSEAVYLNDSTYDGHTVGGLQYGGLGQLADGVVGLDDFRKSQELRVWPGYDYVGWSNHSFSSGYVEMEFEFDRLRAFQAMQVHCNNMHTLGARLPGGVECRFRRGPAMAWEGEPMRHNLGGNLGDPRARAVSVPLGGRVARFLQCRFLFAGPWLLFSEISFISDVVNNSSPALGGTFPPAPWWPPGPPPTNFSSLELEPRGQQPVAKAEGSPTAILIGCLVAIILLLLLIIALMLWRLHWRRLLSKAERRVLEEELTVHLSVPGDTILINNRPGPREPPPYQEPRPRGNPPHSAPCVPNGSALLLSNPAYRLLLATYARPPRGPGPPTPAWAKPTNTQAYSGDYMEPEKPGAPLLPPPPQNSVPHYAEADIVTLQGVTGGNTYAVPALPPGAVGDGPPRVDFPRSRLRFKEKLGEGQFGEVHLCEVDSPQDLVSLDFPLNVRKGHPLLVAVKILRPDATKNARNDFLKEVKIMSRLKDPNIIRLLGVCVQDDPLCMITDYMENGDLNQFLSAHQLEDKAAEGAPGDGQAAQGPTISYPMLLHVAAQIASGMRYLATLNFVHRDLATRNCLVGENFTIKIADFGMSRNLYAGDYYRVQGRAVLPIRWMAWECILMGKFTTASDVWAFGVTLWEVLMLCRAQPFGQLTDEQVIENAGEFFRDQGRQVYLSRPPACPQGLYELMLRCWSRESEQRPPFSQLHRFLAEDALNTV
endpoint: remaining activity at 1 µM
Respond with the figure and its unit, in that order.

Problem: Given COc1ncc(-c2ccc3nccc(-c4ccnnc4)c3c2)cc1NS(=O)(=O)c1ccc(F)cc1F [Omipalisib] , state its recorded remaining activity at 1 µM.
Result: 100%

Problem: remaining activity at 1 µM lookup needed for FC(F)c1nc2ccccc2n1-c1nc(N2CCOCC2)nc(N2CCOCC2)n1 [ZSTK474] , thanks.
Result: 95%

Problem: Fill in the blank: the reported remaining activity at 1 µM of Cn1c(=O)n(-c2ccc(C(C)(C)C#N)cc2)c2c3cc(-c4cnc5ccccc5c4)ccc3ncc21 [Dactolisib] is ____.
Result: 100%

Problem: Quick check: remaining activity at 1 µM of Nc1cc(C(F)(F)F)c(-c2cc(N3CCOCC3)nc(N3CCOCC3)n2)cn1 [Buparlisib] ?
Result: 100%

###

molecular target: panel of 442 kinases (Homo sapiens, UniProt P00519, Q252H); construct: purchased Ambit Biosciences (scanMAXX KINOMEscan); experiment: biochemical; format: binding; conditions: ABL1(Q252H)-phosphorylated; 1 µM; read-out: % of control at 1 µM
endpoint: remaining activity at 1 µM (%)
Answer in %, number only, no unit symbol.

Cn1c(=O)n(-c2ccc(C(C)(C)C#N)cc2)c2c3cc(-c4cnc5ccccc5c4)ccc3ncc21; 59
FC(F)c1nc2ccccc2n1-c1nc(N2CCOCC2)nc(N2CCOCC2)n1; 100
Nc1cc(C(F)(F)F)c(-c2cc(N3CCOCC3)nc(N3CCOCC3)n2)cn1; 72

Consider the additional compound presented here.
Problem: Would you mind telling me what remaining activity at 1 µM value was observed for COc1ncc(-c2ccc3nccc(-c4ccnnc4)c3c2)cc1NS(=O)(=O)c1ccc(F)cc1F ?
Result: 100

###

biological target: panel of 442 kinases (Homo sapiens, UniProt P00519, M351T); construct: purchased Ambit Biosciences (scanMAXX KINOMEscan); experiment: biochemical; assay type: binding; conditions: ABL1(M351T)-phosphorylated; 1 µM; read-out: % of control at 1 µM
Below, each entry is listed alongside its reported remaining activity at 1 µM.
Use % as the unit, but write only the number.

In the examples that follow, each entry is paired with its recorded remaining activity at 1 µM.
Cn1c(=O)n(-c2ccc(C(C)(C)C#N)cc2)c2c3cc(-c4cnc5ccccc5c4)ccc3ncc21; 89
Nc1cc(C(F)(F)F)c(-c2cc(N3CCOCC3)nc(N3CCOCC3)n2)cn1; 90
COc1ncc(-c2ccc3nccc(-c4ccnnc4)c3c2)cc1NS(=O)(=O)c1ccc(F)cc1F; 94

Could you now consider this next compound?
Problem: Fill in: remaining activity at 1 µM of FC(F)c1nc2ccccc2n1-c1nc(N2CCOCC2)nc(N2CCOCC2)n1 is ___
Result: 100

###

Catalogue of remaining activity at 1 µM readings, one per entry.
target: panel of 442 kinases (Homo sapiens); construct: purchased Ambit Biosciences (scanMAXX KINOMEscan); assay: biochemical; assay type: binding; conditions: kinase MYLK2; 1 µM; read-out: % of control at 1 µM
Kindly provide the numeric value in % only, without the unit symbol.

Nc1cc(C(F)(F)F)c(-c2cc(N3CCOCC3)nc(N3CCOCC3)n2)cn1; 100
FC(F)c1nc2ccccc2n1-c1nc(N2CCOCC2)nc(N2CCOCC2)n1; 95
COc1ncc(-c2ccc3nccc(-c4ccnnc4)c3c2)cc1NS(=O)(=O)c1ccc(F)cc1F; 100

Please find the next molecule below.
Problem: Look up remaining activity at 1 µM for this molecule: Cn1c(=O)n(-c2ccc(C(C)(C)C#N)cc2)c2c3cc(-c4cnc5ccccc5c4)ccc3ncc21
Result: 93

###

Molecular target: panel of 442 kinases (Homo sapiens)
Construct: purchased Ambit Biosciences (scanMAXX KINOMEscan)
Sequence (O43283 1-966): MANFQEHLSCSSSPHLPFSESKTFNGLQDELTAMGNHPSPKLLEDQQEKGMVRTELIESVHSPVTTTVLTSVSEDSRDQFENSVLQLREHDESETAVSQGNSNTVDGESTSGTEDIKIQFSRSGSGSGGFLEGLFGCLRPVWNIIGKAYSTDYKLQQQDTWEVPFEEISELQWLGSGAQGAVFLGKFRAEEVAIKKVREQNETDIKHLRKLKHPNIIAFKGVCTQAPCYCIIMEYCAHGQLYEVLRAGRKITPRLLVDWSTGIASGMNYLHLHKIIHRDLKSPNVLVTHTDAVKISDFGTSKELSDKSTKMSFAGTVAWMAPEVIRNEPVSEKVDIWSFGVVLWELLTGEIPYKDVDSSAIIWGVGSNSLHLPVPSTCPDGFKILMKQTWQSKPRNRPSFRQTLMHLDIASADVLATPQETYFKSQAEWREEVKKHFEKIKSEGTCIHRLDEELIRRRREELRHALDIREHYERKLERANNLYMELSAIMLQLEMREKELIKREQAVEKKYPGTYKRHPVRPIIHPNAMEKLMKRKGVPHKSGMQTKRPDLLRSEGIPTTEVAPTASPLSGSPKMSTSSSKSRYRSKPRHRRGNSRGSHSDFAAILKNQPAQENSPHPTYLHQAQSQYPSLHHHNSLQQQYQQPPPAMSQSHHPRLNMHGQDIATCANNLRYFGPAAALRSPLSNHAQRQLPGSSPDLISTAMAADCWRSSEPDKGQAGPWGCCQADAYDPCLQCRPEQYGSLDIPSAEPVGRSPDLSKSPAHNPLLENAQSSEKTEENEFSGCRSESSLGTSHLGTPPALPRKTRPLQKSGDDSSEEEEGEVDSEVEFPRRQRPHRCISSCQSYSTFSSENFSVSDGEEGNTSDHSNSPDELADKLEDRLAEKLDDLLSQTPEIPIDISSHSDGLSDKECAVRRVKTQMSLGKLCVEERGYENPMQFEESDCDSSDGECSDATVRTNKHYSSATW
Experiment: biochemical
Type: binding
Conditions: kinase LZK; 1 µM; read-out: % of control at 1 µM
endpoint: remaining activity at 1 µM (%)
Numbers only; they are read as %.

Nc1cc(C(F)(F)F)c(-c2cc(N3CCOCC3)nc(N3CCOCC3)n2)cn1 [Buparlisib]; 81
COc1ncc(-c2ccc3nccc(-c4ccnnc4)c3c2)cc1NS(=O)(=O)c1ccc(F)cc1F [Omipalisib]; 100
Cn1c(=O)n(-c2ccc(C(C)(C)C#N)cc2)c2c3cc(-c4cnc5ccccc5c4)ccc3ncc21 [Dactolisib]; 100

API: the following record is the query input.
Problem: Fill blank: measured remaining activity at 1 µM of the compound FC(F)c1nc2ccccc2n1-c1nc(N2CCOCC2)nc(N2CCOCC2)n1 [ZSTK474] is ____.
Result: 100
